- SYSTEM_TESTED: A138 iCAPS (purified human CB1 with ICL3 native sequence replaced with protein 1 sequence, in lipid bilayer) (human) (UniProt P21554)
- Sequence (P21554 whole entry): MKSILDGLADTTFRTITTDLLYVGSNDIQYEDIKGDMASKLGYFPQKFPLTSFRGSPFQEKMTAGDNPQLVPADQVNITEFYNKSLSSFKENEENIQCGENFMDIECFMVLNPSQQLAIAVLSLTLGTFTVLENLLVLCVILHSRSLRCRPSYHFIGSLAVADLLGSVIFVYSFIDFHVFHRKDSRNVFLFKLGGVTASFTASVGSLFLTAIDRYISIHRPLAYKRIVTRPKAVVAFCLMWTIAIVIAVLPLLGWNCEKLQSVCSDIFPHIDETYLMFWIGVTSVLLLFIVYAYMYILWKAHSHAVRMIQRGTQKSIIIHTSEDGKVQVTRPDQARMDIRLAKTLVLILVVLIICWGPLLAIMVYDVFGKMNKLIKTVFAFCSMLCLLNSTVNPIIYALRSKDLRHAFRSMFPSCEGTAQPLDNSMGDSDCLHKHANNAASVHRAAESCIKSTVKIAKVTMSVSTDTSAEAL
- ASSAY_REMARKS: ELISA, purified IgG on CB1 iCAPS
Checkbox rule: EC50 lower than 5 nM = Fulfilled; EC50 not lower than 5 nM = Not fulfilled.

Worked set:
>  <BINDER>
PA2LR3-P2B8 (chimeric) (antibody, V domains shown) VH: EVQLQQSGAELVRPGSSVKISCKASGYAFSYYWMNWVKQRPGQGLEWIGQIYPGDGDTNYNGKFKGKATLTADKSSSTAYMQLSSLTSEDSAVYFCARSHGNYFAYWGQGTLVTVSA VL: DIVMTQSPAIMSASLGERVTMTCTASSSISSSYLHWYQQKPGSSPKLWIYSTSNLASGVPARFSGSGSGTSYSLTISSMEAEDAATYYCHQYHRSPLAFGAGTKLELKR

>  <QUALITATIVE_LABEL>
Not fulfilled

$$$$
>  <BINDER>
PA2LR3-P3B8 (chimeric) (antibody, V domains shown) VH: EVQLQQSGAELVRPGSSVKISCKASGFAFSNYWMNWVKQRPGQGLEWIGQIYPGDGDTNFNGKFKGRAILTADISSNTAYMQLSSLTSEDSAVYFCARSHGNYFPYWGQGTLVTVSA VL: DIVMTQSPAIMSASLGERVTMTCTASSSVSSSYLHWYQQKPGSSPKLWIYGTSNLASGVPVRFSGSGSGTSYSLTISSMEAEDAATYYCQQWSSYPLTFGAGTKLELKR

>  <QUALITATIVE_LABEL>
Not fulfilled

$$$$
>  <BINDER>
PA2LR3-P4G10 (chimeric) (antibody, V domains shown) VH: EVQLQQFGAELVRPGSSVKISCKASGYAFSYYWMNWVKQRPGQGLEWIGQIYPGDGDTNYNGKFKGKATLTADKSSSTAYMQLSSLTSEDSAVYFCARSHGNYFAYWGQGTLVTVSA VL: DIVLTQSPAIMSASLGERVTMTCTASSSVSSSYLHWYQQKPGSSPKLWIYSTSNLASGVPARFSGSGSGTSYSLTISSMEAEDAATYYCQQWSSNPLTFGAGTKLELKR

>  <QUALITATIVE_LABEL>
Fulfilled

$$$$
>  <BINDER>
PA2LR3-P4B1 (chimeric) (antibody, human IgG1, kappa, V domains shown) VH: EVQLQQSGAELVRPGSSVKISCKASGFAFSNYWMNWVKQRPGQGLEWIGQIYPGDGDTNFNGKFKGRAILTADISSNTAYMQLSSLTSEDSAVYFCARSHGNYFPYWGQGTLVTVSA VL: QIVLTQSPAIMSASLGERVTMTCTASSSVSSSYLHWYQQKPGSSPKLWIYSTSNLASGVPARFSGSGSGTSYSLTISSMEAEDAATYYCHQYHRSPLTFGAGTKLELKR

>  <QUALITATIVE_LABEL>
Fulfilled

$$$$

Turning now to a further binder:
Please check: EC50 for PA2LR3-P3B10 (chimeric) (antibody, V domains shown) VH: EVQLQQSGAELVRPGSSVKISCKASGYAFSYYWMNWVKQRPGQGLEWIGQIYPGDGDTNYNGKFKGKATLTADKSSSTAYMQLSSLTSEDSAVYFCARSHGNYFPYWGQGTLVTVSA VL: DIVITQSPAIVSASLGERVTMTCTASSSVSSSYLHWYQQKPGSSPKLWIYSTSNLASGVPARFSGSGSGTSYSLTISSMEAEDAATYYCQQWSSYPLTFGAGTKLEIKR , strictly under 5 nM or not?
Fulfilled

Just for reference, patent US20230348589A1 is where these values come from.
